experimental-readout: MIC (µM)
Your answer is read as µM, so omit the unit and give the number.

Query: # get_value(readout= MIC, system= Staphylococcus epidermidis) for `CC[C@H](C)[C@H](NC(=O)[C@H](CCCN=C(N)N)NC(=O)[C@H](C)NC(=O)CNC(=O)[C@@H](N)CCCN=C(N)N)C(=O)N[C@H](C(=O)N[C@H](C(=O)N[C@H](C(=O)N[C@@H](CCCN=C(N)N)C(=O)N[C@H](C(=O)N[C@@H](C)C(=O)N[C@@H](CCCN=C(N)N)C(N)=O)C(C)C)[C@@H](C)CC)C(C)C)C(C)C`
Result: 11.7

Query: # get_value(readout= MIC, system= Staphylococcus epidermidis) for `CC[C@H](C)[C@H](NC(=O)[C@H](CCCN=C(N)N)NC(=O)[C@H](CCCN=C(N)N)NC(=O)[C@H](CC(C)C)NC(=O)[C@@H](N)CCCN=C(N)N)C(=O)N[C@H](C(=O)N[C@H](C(=O)N[C@H](C(=O)N[C@@H](CCCN=C(N)N)C(=O)N[C@H](C(=O)N[C@@H](C)C(=O)N[C@@H](CCCN=C(N)N)C(=O)O)C(C)C)[C@@H](C)CC)C(C)C)C(C)C`
Result: 1.33
